biological target: Inosine-5'-monophosphate dehydrogenase 2 (Homo sapiens, UniProt P12268); assay: Inhibitory activity against human Inosine-5'-monophosphate dehydrogenase 2 (IMPDH type II)
pKi: −log10 of the molar value.

molecule: NC(=O)c1cccc(C2OC(COP(=O)(O)CP(=O)(O)OC[C@@H]3OC(n4cnc5c(N)ncnc54)[C@@H](O)[C@H]3O)[C@@H](O)[C@H]2O)c1 (stereo not given in full)
pKi: 6.02

molecule: COc1c(C)c2c(c(O)c1C/C=C(\C)COP(=O)(O)CP(=O)(O)OC[C@@H]1O[C@H](n3cnc4c(N)ncnc43)[C@@H](O)[C@H]1O)C(=O)OC2
pKi: 6.42

molecule: NC(=O)c1csc([C@@H]2O[C@H](COP(=O)(O)C(F)(F)P(=O)(O)OC[C@@H]3O[C@H](n4cnc5c(N)ncnc54)[C@@H](O)[C@H]3O)[C@@H](O)[C@H]2O)n1
pKi: 6.52

molecule: COc1c(C)c2c(c(O)c1CCOP(=O)(O)CP(=O)(O)OCCc1c(O)c3c(c(C)c1OC)COC3=O)C(=O)OC2
pKi: 6.33

molecule: NC(=O)c1csc([C@@H]2O[C@H](COP(=O)(O)CP(=O)(O)OC[C@@H]3O[C@H](n4cnc5c(N)ncnc54)[C@@H](O)[C@H]3O)[C@@H](O)[C@H]2O)n1
pKi: 6.96
